Source listed as patent US12630719B2.

Assay Details: Photo-physical properties in aqueous HEPES buffer solution
Format: physicochemical
Run Parameters: aqueous HEPES buffer 20 mM, pH 7.4
Parameter λabs: see the listing below.
Recorded Metric: λabs (nm)

>>> val("CCCCCCCCC[n+]1c2cc(N(C)C)ccc2cc2ccc(N(C)C)cc21 [NAO, 10-N-nonyl acridine orange, reference compound]")
498
>>> val("C[n+]1c2cc(N3CCC3)ccc2cc2ccc(N3CCC3)cc21.[I-] [Compound I-1]")
497
>>> val("CCCCCCCCCCCC[n+]1c2cc(N3CCC3)ccc2cc2ccc(N3CCC3)cc21.[I-] [Compound I-4]")
494
>>> val("C[Si](C)(C)CCC[n+]1c2cc(N3CCC3)ccc2cc2ccc(N3CCC3)cc21.[I-] [Compound I-5]")
497
>>> val("[2H]C([2H])([2H])[n+]1c2cc(N3CCC3)ccc2cc2ccc(N3CCC3)cc21.[I-] [Compound I-2]")
497
>>> val("CCCCCCCCC[n+]1c2cc(N3CCC3)ccc2cc2ccc(N3CCC3)cc21.[I-] [Compound I-3]")
498

* * *

Parameter λem: see the listing below.
Assay Details: Photo-physical properties in aqueous HEPES buffer solution
Assay type: physicochemical
Run Parameters: aqueous HEPES buffer 20 mM, pH 7.4
Recorded Metric: λem (nm)

>>> val("CCCCCCCCC[n+]1c2cc(N3CCC3)ccc2cc2ccc(N3CCC3)cc21.[I-] [Compound I-3]")
529
>>> val("C[Si](C)(C)CCC[n+]1c2cc(N3CCC3)ccc2cc2ccc(N3CCC3)cc21.[I-] [Compound I-5]")
529
>>> val("CCCCCCCCC[n+]1c2cc(N(C)C)ccc2cc2ccc(N(C)C)cc21 [NAO, 10-N-nonyl acridine orange, reference compound]")
528
>>> val("C[n+]1c2cc(N3CCC3)ccc2cc2ccc(N3CCC3)cc21.[I-] [Compound I-1]")
529
>>> val("[2H]C([2H])([2H])[n+]1c2cc(N3CCC3)ccc2cc2ccc(N3CCC3)cc21.[I-] [Compound I-2]")
529
>>> val("CCCCCCCCCCCC[n+]1c2cc(N3CCC3)ccc2cc2ccc(N3CCC3)cc21.[I-] [Compound I-4]")
528

* * *

Assay Details: Photo-physical properties in aqueous HEPES buffer solution
Assay type: physicochemical
Run Parameters: aqueous HEPES buffer 20 mM, pH 7.4
Parameter Φ (PLQY, photoluminescence quantum yield): see the listing below.
Recorded Metric: Φ (PLQY, photoluminescence quantum yield) (%)

>>> val("CCCCCCCCC[n+]1c2cc(N(C)C)ccc2cc2ccc(N(C)C)cc21 [NAO, 10-N-nonyl acridine orange, reference compound]")
15.5
>>> val("CCCCCCCCC[n+]1c2cc(N3CCC3)ccc2cc2ccc(N3CCC3)cc21.[I-]")
47.9
>>> val("CCCCCCCCCCCC[n+]1c2cc(N3CCC3)ccc2cc2ccc(N3CCC3)cc21.[I-]")
16.1
>>> val("C[n+]1c2cc(N3CCC3)ccc2cc2ccc(N3CCC3)cc21.[I-]")
59.9
>>> val("[2H]C([2H])([2H])[n+]1c2cc(N3CCC3)ccc2cc2ccc(N3CCC3)cc21.[I-]")
61.5
>>> val("C[Si](C)(C)CCC[n+]1c2cc(N3CCC3)ccc2cc2ccc(N3CCC3)cc21.[I-]")
60.7
